B1: PKD2L1 (parent)
chain: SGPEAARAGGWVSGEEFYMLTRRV

# Variants of: B1
# ASSAY_OVERVIEW: protein stability index of a GFP-peptide fusion (GPS, HEK-293T) (PSI 1-6); higher = more stable;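 note: lentivirally expressed fusions sorted by FACS into six bins by GFP to DsRed ratio, PSI derived from sequencing read proportions per bin multiplied by bin number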
# CONDITION_CONTEXT: c terminus: a fixed tail appended
Listing of recorded protein stability index by entry.

SEQUENCE_CONTENT | protein stability index
SGPEAARAGGWVSGEEFYMLTWRV [R22W] | 1.72
SGPEAARAGGWVSGEEFYMLTNRV [R22N] | 2.81
SGPETARAGGWVSGEEFYMLTRRV [A5T] | 1.82
SGPEAARAGGWVSGEHFYMLTRRV [E16H] | 1.64
SGCEAARAGGWVSGEEFYMLTRRV [P3C] | 2.11
SGPEAARAGGWVSGEEFYMLTRSV [R23S] | 2.97
SGPEAARAGGWLSGEEFYMLTRRV [V12L] | 2.6
SGPEAARAGGWQSGEEFYMLTRRV [V12Q] | 2.49
SGHEAARAGGWVSGEEFYMLTRRV [P3H] | 2.32
IGPEAARAGGWVSGEEFYMLTRRV [S1I] | 2.64
SGPEAAEAGGWVSGEEFYMLTRRV [R7E] | 2.75
SAPEAARAGGWVSGEEFYMLTRRV [G2A] | 2
SGPEAARAGGWVSGEEFYMLGRRV [T21G] | 3.08
SGPEAARAGGWVSGLEFYMLTRRV [E15L] | 2.02
SGPEAARAGGLVSGEEFYMLTRRV [W11L] | 3.09
SGPEAARAGGWVSGEEYYMLTRRV [F17Y] | 2.79
SGPEAARAGGWVPGEEFYMLTRRV [S13P] | 2.78
SGPEAARAEGWVSGEEFYMLTRRV [G9E] | 2.5
SGPEAARAGGWVSGEEFYMVTRRV [L20V] | 2.25
SGPEAARAGGWVSGGEFYMLTRRV [E15G] | 2.2
SGPEAARAGQWVSGEEFYMLTRRV [G10Q] | 2.91
SYPEAARAGGWVSGEEFYMLTRRV [G2Y] | 1.72
SGPEAARAGGWVSSEEFYMLTRRV [G14S] | 2.6
SGPEAARAGGWVSGEEIYMLTRRV [F17I] | 2.67
SQPEAARAGGWVSGEEFYMLTRRV [G2Q] | 2.64
SGPEAARAGGWVSGEEFYMTTRRV [L20T] | 2.81
SGPEAARAGGWVSGQEFYMLTRRV [E15Q] | 2.16
SGPEAARAGLWVSGEEFYMLTRRV [G10L] | 2.17
SGPEHARAGGWVSGEEFYMLTRRV [A5H] | 2.03
SGPPAARAGGWVSGEEFYMLTRRV [E4P] | 2.08
SGPEAARAGGWVSLEEFYMLTRRV [G14L] | 2.04
SGPEAASAGGWVSGEEFYMLTRRV [R7S] | 2.42
SGPEAARAGGWVSGEFFYMLTRRV [E16F] | 2.75
SGPEAARAGGWVSGNEFYMLTRRV [E15N] | 2.46
VGPEAARAGGWVSGEEFYMLTRRV [S1V] | 2.67
SGPEAARAGGWVSGEEFYRLTRRV [M19R] | 3.11
SGPEAARAGGWDSGEEFYMLTRRV [V12D] | 2.91
YGPEAARAGGWVSGEEFYMLTRRV [S1Y] | 1.46
SGPEAARAGGWVSGEEFKMLTRRV [Y18K] | 4.08
SGPEAAWAGGWVSGEEFYMLTRRV [R7W] | 2.6
SGPEAARAGGWVSGEEFYMLDRRV [T21D] | 3.76
SGPEAARKGGWVSGEEFYMLTRRV [A8K] | 2.13
SGPEAARAGGWVSHEEFYMLTRRV [G14H] | 2.4
SGPEAVRAGGWVSGEEFYMLTRRV [A6V] | 3.13
SGPEAARAGGWVSGEEFYMLTRRH [V24H] | 2.72
SGPEWARAGGWVSGEEFYMLTRRV [A5W] | 2.06
KGPEAARAGGWVSGEEFYMLTRRV [S1K] | 2.75
SGPECARAGGWVSGEEFYMLTRRV [A5C] | 1.98
SGPEAARAGGWVSAEEFYMLTRRV [G14A] | 3.24
SGPEAARAGGWVSGEEFYMLMRRV [T21M] | 2.67
SGPEAARAGGWVMGEEFYMLTRRV [S13M] | 2.14
SGPEAARSGGWVSGEEFYMLTRRV [A8S] | 2.31
SGPEAARAGGWVSGEEFYWLTRRV [M19W] | 2.68
SGPEAARIGGWVSGEEFYMLTRRV [A8I] | 1.76
SGPEAARAGGWVSGDEFYMLTRRV [E15D] | 2.54
SGPEAARAGGWVSGEEFYVLTRRV [M19V] | 1.48
SGPEAARAGGWESGEEFYMLTRRV [V12E] | 3.52
TGPEAARAGGWVSGEEFYMLTRRV [S1T] | 2.68
SGPEAARAGGWVSGEEFYMLTRDV [R23D] | 3.49
SGWEAARAGGWVSGEEFYMLTRRV [P3W] | 1.74
SGPEAARAGGWVSMEEFYMLTRRV [G14M] | 2.46
SGPEAARAGGHVSGEEFYMLTRRV [W11H] | 4.33
SGPEAARAGGWVSGEEFNMLTRRV [Y18N] | 3.69
SGPEAARAGGWNSGEEFYMLTRRV [V12N] | 2.73
SGPEAARAKGWVSGEEFYMLTRRV [G9K] | 1.97
MGPEAARAGGWVSGEEFYMLTRRV [S1M] | 2.04
SGPEAARAGGWVSGEEFYMLTRRS [V24S] | 2.67
SGPEAARAGGWVSDEEFYMLTRRV [G14D] | 3.91
SGPEAERAGGWVSGEEFYMLTRRV [A6E] | 2.65
SGPWAARAGGWVSGEEFYMLTRRV [E4W] | 1.3
SGPEAARAGGQVSGEEFYMLTRRV [W11Q] | 3.92
SGPEAARAGGWVSGEEFYMLTRCV [R23C] | 2.14
SGPEAARAGGWSSGEEFYMLTRRV [V12S] | 3.38
SGPEAARAGGWVSPEEFYMLTRRV [G14P] | 3.09
PGPEAARAGGWVSGEEFYMLTRRV [S1P] | 2.35
SGPEEARAGGWVSGEEFYMLTRRV [A5E] | 2.32
SGPEAARAGGWVSGEEFYMLTRFV [R23F] | 2.06
SGPEAARAGGWVHGEEFYMLTRRV [S13H] | 2.74
SGPEAARAGGWVSGAEFYMLTRRV [E15A] | 1.86
SGPEAARAGGWVSGEEFRMLTRRV [Y18R] | 3.55
SGPEAARAGGWVSGERFYMLTRRV [E16R] | 1.93
SGPEAARAGGWVSGEEFYMLTRNV [R23N] | 2.5
LGPEAARAGGWVSGEEFYMLTRRV [S1L] | 1.5
SVPEAARAGGWVSGEEFYMLTRRV [G2V] | 2.27
SGPEAARAGGWVSIEEFYMLTRRV [G14I] | 2.63
SGPEAKRAGGWVSGEEFYMLTRRV [A6K] | 2.12
SGPEAARAGGWVSGCEFYMLTRRV [E15C] | 1.54
SGPEAARAGTWVSGEEFYMLTRRV [G10T] | 2.73
SGPEAARAGGWVSGEEFYMLWRRV [T21W] | 2.12
SGPEAARAGGWVSGEEFSMLTRRV [Y18S] | 3.4
SGPEAARAGGYVSGEEFYMLTRRV [W11Y] | 2.75

Provenance of the data: the supplement of paper PMC10567573
